inhibition at 10 µM: recorded values
TGT: CDK17/Cyclin Y (Homo sapiens, UniProt Q00537)
Sequence (Q00537 whole entry): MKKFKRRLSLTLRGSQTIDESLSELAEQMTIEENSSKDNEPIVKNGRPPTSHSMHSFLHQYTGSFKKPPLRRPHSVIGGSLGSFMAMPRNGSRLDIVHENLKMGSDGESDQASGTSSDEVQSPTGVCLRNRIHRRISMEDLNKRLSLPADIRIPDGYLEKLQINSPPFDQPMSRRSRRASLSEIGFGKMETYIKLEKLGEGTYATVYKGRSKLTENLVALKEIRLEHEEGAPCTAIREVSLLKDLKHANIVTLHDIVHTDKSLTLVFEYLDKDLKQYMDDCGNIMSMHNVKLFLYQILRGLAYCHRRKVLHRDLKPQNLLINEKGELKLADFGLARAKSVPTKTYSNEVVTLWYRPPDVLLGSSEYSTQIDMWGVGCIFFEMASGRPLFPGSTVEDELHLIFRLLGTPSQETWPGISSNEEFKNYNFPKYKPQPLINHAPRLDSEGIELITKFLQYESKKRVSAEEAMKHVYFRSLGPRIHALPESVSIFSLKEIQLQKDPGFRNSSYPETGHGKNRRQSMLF
Sequence (Q8ND76 whole entry partner): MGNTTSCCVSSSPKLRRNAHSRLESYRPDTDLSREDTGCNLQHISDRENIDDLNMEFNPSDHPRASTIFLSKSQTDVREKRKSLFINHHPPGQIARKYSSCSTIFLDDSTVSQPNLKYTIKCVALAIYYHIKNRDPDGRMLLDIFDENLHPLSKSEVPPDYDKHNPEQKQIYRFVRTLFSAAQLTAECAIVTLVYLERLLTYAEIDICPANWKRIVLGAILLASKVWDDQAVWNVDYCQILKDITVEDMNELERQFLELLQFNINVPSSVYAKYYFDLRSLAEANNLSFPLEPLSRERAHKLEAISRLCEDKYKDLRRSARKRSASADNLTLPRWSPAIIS
MEASUREMENT_PROTOCOL: NanoBRET live-cell target engagement, CDK17-NanoLuc/Cyclin Y in HEK-293
Assay type: binding
MEASUREMENT_CONDITIONS: 10µM; independent experiment 2; read-out: CDK17/Y Inhibition at 10µM (%)
// return numeric value only (unit: %, not printed)

Worked cases, answers included:
>  <MOLECULE>
CN1C/C=C/CCOc2cccc(c2)-c2ccnc(n2)Nc2cccc(c2)C1 [SB1317]

>  <inhibition at 10 µM [%]>
93.1

$$$$
>  <MOLECULE>
CC(=O)c1c(C)c2cnc(Nc3ccc(N4CCNCC4)cn3)nc2n(C2CCCC2)c1=O [Palbociclib]

>  <inhibition at 10 µM [%]>
77.3

$$$$
>  <MOLECULE>
CN1CCN(c2ccc(Nc3ncc4cc5n(c4n3)C3(CCCCC3)CNC5=O)nc2)CC1 [Trilaciclib]

>  <inhibition at 10 µM [%]>
32.7

$$$$

Next:
Suppose we examine the molecule CN(C)C/C=C/C(=O)Nc1ccc(C(=O)N2CCC[C@@H](Nc3ncc(Cl)c(-c4c[nH]c5ccccc45)n3)C2)cc1 [THZ531] ; what inhibition at 10 µM value has been reported?
52.6

* * *

TGT: CDK15/Cyclin Y (Homo sapiens)
Sequence (Q96Q40 whole entry): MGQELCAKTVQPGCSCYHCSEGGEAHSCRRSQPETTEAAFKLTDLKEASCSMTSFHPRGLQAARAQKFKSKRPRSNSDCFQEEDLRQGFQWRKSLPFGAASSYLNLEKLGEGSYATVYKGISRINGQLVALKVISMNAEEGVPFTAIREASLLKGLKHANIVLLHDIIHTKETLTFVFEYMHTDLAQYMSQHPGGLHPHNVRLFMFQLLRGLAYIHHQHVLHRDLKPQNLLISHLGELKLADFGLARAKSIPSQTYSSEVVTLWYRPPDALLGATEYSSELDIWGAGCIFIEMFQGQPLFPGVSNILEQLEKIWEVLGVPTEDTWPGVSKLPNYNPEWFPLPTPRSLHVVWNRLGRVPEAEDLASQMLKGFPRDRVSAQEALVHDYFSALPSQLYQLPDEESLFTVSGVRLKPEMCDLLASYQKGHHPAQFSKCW
Sequence (Q8ND76 whole entry partner): as the sequence (Q8ND76 whole entry partner) above
MEASUREMENT_PROTOCOL: NanoBRET live-cell target engagement, NanoLuc-CDK15/Cyclin Y in HEK-293
Assay type: binding
MEASUREMENT_CONDITIONS: CDK15/Y; experiment 1; read-out: IC50
IC50: recorded values
// return numeric value only (unit: nM, not printed)

>  <MOLECULE>
CNC(=O)c1nn(C)c2c1C(C)(C)Cc1cnc(Nc3ccc(N4CCN(C)CC4)cc3)nc1-2

>  <TGT>
CDK15/Cyclin Y (Homo sapiens)

>  <MEASUREMENT_NAME>
IC50

>  <EXPERIMENTAL_RESULT>
970

$$$$
>  <MOLECULE>
CS(=O)(=O)N1CCC(NC(=O)c2[nH]ncc2NC(=O)c2c(Cl)cccc2Cl)CC1

>  <TGT>
CDK15/Cyclin Y (Homo sapiens)

>  <MEASUREMENT_NAME>
IC50

>  <EXPERIMENTAL_RESULT>
531

$$$$

Next:
Suppose we examine the molecule CC(C)c1cnn2c(NCc3ccccc3-n3cccn3)nc(OC3CCCNC3)nc12 (stereo not drawn) ; what IC50 value has been reported?
220

* * *

TGT: CDK10/Cyclin L2 (Homo sapiens, UniProt Q15131)
Sequence (Q15131 whole entry): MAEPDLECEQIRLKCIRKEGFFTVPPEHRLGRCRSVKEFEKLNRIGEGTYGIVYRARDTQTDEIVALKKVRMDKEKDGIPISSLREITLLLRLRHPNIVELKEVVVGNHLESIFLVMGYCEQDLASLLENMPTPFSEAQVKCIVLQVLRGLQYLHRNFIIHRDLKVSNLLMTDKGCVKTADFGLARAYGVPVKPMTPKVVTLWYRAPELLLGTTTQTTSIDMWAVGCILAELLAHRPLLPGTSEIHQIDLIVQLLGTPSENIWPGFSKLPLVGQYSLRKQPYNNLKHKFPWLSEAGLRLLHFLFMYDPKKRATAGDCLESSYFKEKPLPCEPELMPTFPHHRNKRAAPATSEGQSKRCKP
MEASUREMENT_PROTOCOL: NanoBRET live-cell target engagement, CDK10-NanoLuc/Cyclin L2 in HEK-293
MEASUREMENT_CONDITIONS: read-out: CDK10/L2 Inhibition at 10µM (%), 10µM; independent experiment 1
# binarize inhibition at 10 µM: threshold 10% inclusive, high side True, low side False

>  <STRUCTURE_SMILES_STRING>
COCCN1CCN(Cc2ccc(-c3n[nH]c4c3C(=O)c3c(NC(=O)NN5CCOCC5)cccc3-4)cc2)CC1

>  <ANSWER_LABEL>
True

$$$$
>  <STRUCTURE_SMILES_STRING>
CN1C/C=C/CCOc2cccc(c2)-c2ccnc(n2)Nc2cccc(c2)C1

>  <ANSWER_LABEL>
True

$$$$
>  <STRUCTURE_SMILES_STRING>
CC(C)CC(=O)Nc1[nH]nc2c1CN(C(=O)C1CCN(C)CC1)C2(C)C

>  <ANSWER_LABEL>
True

$$$$
>  <STRUCTURE_SMILES_STRING>
CC[C@H](CO)Nc1nc(NCc2ccccc2)c2ncn(C(C)C)c2n1

>  <ANSWER_LABEL>
True

$$$$

I'd appreciate it if you could say whether "CC(C)[C@H](CO)Nc1nc(Nc2ccc(C(=O)O)c(Cl)c2)c2ncn(C(C)C)c2n1" has inhibition at 10 µM at least equal to 10%.
False

Entry to check: "CC(=O)c1c(C)c2cnc(Nc3ccc(N4CCNCC4)cn3)nc2n(C2CCCC2)c1=O"
True

Entry to check: "CN(C)C(=O)c1cc2cnc(Nc3ccc(N4CCNCC4)cn3)nc2n1C1CCCC1"
False

* * *

Inhibition at 10µM (%): recorded values
TGT: CDK14/Cyclin Y (Homo sapiens)
Sequence (O94921 whole entry): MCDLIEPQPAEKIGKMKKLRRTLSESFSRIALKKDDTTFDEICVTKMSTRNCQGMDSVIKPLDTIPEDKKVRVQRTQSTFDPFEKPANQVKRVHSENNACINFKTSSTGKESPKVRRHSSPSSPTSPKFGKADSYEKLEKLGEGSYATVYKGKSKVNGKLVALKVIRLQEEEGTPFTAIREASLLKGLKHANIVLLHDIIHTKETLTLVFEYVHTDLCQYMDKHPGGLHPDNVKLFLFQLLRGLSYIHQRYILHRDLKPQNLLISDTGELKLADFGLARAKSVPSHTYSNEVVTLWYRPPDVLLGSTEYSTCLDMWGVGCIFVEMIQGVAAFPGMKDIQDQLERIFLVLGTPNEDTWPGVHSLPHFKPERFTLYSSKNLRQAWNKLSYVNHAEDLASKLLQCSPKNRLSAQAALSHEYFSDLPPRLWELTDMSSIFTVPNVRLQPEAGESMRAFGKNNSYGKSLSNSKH
Sequence (Q8ND76 whole entry partner): as the sequence (Q8ND76 whole entry partner) above
MEASUREMENT_PROTOCOL: NanoBRET live-cell target engagement, CDK14-NanoLuc/Cyclin Y in HEK-293
Format: binding
MEASUREMENT_CONDITIONS: CDK14/Y; average
// return numeric value only (unit: %, not printed)

>  <COMPOUND>
CNc1nc(C)c(-c2nc(Nc3cccc(S(N)(=O)=O)c3)ncc2F)s1

>  <Inhibition at 10µM (%)>
92.7

$$$$

Suppose we examine the compound "CS(=O)(=O)N1CCC(NC(=O)c2[nH]ncc2NC(=O)c2c(Cl)cccc2Cl)CC1" ; what Inhibition at 10µM (%) value has been reported?
90.1

Entry to check: CCn1cnc2c(Nc3cccc(Cl)c3)nc(N[C@@H]3CCCC[C@@H]3N)nc21 [CGP74514A]
63.7

Entry to check: "CC(C)c1c2cc(-c3ccnc(N[C@H]4CC[C@H](NC5CCOCC5)CC4)n3)ccc2nn1C"
90.6

* * *

inhibition at 10 µM: recorded values
TGT: CDK11B/Cyclin L2 (Homo sapiens)
Sequence (P21127 1-782 isoform P21127-2): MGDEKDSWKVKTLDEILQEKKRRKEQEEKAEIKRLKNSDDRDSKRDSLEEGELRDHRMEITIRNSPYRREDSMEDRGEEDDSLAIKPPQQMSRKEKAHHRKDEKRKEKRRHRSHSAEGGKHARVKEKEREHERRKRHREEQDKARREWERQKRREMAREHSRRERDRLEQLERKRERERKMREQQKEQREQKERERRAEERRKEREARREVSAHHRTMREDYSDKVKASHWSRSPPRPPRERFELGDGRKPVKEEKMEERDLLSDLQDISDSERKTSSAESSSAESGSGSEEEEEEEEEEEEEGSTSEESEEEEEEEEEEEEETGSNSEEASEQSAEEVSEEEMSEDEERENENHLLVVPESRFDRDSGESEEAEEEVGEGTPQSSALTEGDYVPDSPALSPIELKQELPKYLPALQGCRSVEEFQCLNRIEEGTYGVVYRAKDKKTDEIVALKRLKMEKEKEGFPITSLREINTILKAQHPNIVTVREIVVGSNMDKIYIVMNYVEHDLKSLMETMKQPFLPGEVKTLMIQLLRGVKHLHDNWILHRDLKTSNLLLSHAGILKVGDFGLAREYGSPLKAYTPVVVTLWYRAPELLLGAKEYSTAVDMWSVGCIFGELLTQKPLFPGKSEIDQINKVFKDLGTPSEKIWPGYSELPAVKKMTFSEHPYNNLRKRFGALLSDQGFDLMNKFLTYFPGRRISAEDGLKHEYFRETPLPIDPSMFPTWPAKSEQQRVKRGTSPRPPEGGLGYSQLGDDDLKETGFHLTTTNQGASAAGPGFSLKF
MEASUREMENT_PROTOCOL: NanoBRET live-cell target engagement, CDK11B-NanoLuc/Cyclin L2 in HEK-293
Format: binding
MEASUREMENT_CONDITIONS: CDK11b/L2; average; read-out: Inhibition at 10µM (%)
// return numeric value only (unit: %, not printed)

Worked cases, answers included:
>  <STRUCTURE_SMILES_STRING>
CN1CC[C@H](c2c(O)cc(O)c3c(=O)cc(-c4ccccc4Cl)oc23)[C@H](O)C1

>  <EXPERIMENTAL_RESULT>
47.4

$$$$
>  <STRUCTURE_SMILES_STRING>
N#CCNC(=O)c1ccc(-c2ccnc(Nc3ccc(N4CCOCC4)cc3)n2)cc1

>  <EXPERIMENTAL_RESULT>
52.5

$$$$

Next:
Provide the documented inhibition at 10 µM with CDK11B/Cyclin L2 (Homo sapiens) as the system for "CNC(=O)c1nn(C)c2c1C(C)(C)Cc1cnc(Nc3ccc(N4CCN(C)CC4)cc3)nc1-2"
14.4

* * *

TGT: CDK19/Cyclin C (Homo sapiens, UniProt Q9BWU1)
Sequence (Q9BWU1 whole entry): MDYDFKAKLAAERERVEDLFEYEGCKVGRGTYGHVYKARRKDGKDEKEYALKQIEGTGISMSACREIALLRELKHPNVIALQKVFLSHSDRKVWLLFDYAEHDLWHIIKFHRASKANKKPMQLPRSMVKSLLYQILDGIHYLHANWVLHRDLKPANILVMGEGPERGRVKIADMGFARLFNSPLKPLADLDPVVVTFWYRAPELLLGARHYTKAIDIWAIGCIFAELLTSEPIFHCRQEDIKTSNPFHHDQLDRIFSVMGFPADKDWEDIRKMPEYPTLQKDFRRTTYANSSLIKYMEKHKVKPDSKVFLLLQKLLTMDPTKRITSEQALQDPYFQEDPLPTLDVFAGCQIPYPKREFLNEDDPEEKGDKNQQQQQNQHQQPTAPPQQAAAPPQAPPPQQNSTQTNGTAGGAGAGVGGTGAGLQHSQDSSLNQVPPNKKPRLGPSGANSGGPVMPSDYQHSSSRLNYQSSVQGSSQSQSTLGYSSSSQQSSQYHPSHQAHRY
Sequence (P24863 whole entry partner): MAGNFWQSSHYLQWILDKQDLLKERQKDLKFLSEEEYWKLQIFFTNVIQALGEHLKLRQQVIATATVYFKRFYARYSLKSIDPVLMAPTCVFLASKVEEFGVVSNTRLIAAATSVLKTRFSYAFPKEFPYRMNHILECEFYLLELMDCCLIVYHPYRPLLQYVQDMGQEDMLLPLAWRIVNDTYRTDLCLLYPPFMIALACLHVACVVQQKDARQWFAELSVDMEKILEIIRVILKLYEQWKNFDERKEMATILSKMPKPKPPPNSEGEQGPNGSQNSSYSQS
MEASUREMENT_PROTOCOL: NanoBRET live-cell target engagement, NanoLuc-CDK19/Cyclin C in HEK-293
MEASUREMENT_CONDITIONS: read-out: Inhibition at 10µM (%), CDK19/C; experiment 2
inhibition at 10 µM: recorded values
// return numeric value only (unit: %, not printed)

Worked cases, answers included:
>  <COMPOUND>
COc1ccccc1-c1cc(Nc2cccc(CS(N)(=O)=O)c2)ncn1 [LDC000067]

>  <MEASUREMENT_NAME>
inhibition at 10 µM

>  <EXPERIMENTAL_RESULT>
6.1

$$$$
>  <COMPOUND>
CN1CCN(Cc2ccc(NC(=O)Nc3ccc(Oc4ccnc(N)n4)cc3)cc2C(F)(F)F)CC1 [K03861]

>  <MEASUREMENT_NAME>
inhibition at 10 µM

>  <EXPERIMENTAL_RESULT>
97.3

$$$$
>  <COMPOUND>
CC(C)c1cnn2c(NCc3ccccc3)cc(NC[C@H]3CCNC[C@@H]3O)nc12 [CT7001]

>  <MEASUREMENT_NAME>
inhibition at 10 µM

>  <EXPERIMENTAL_RESULT>
-1.6

$$$$

Suppose we examine the compound NS(=O)(=O)c1ccc(Nc2nc(OCC3CCCCC3)c3nc[nH]c3n2)cc1 [NU6102] ; what inhibition at 10 µM value has been reported?
4.9

Entry to check: COC1CN(C(=O)c2ccc3c(N)ncc(-c4ccc(-c5cnn(C)c5)cc4)c3n2)C1 [CCT251545 analog]
91.3
